Molecular target: human GPR119 (Homo sapiens, UniProt Q8TDV5)
Construct: expressed in transfected cells; host or cells: HEK 293s
Sequence (Q8TDV5 1-335): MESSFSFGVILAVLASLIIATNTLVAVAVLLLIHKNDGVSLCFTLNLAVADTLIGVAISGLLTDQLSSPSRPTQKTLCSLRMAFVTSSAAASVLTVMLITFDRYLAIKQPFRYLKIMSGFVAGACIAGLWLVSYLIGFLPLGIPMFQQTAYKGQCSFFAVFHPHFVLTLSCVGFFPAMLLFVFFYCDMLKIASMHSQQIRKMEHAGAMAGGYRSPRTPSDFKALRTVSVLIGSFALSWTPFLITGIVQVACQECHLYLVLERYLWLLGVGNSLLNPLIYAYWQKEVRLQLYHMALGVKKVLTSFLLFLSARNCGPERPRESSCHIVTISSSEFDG
Test: Cyclic AMP (HTRF cAMP) assay for human GPR119, Method A
Assay type: cell-based
Settings: HEK293S, 0.75 h; Method A; HEK 293s cells over-expressing human GPR119; percent effect at top concentration 30 μM relative to maximum (50 μM Oleoylethanolamide) and minimum (1% DMSO) controls
Label condition not met if activation at 30 µM falls below 90%; label condition met in every other case.

compound: CC(C)(C)OC(=O)N1CCN(c2ncc(OCc3ccc(S(=O)(=O)C4CC4)cc3)cn2)CC1
assigned.label: condition not met
//
compound: CC(C)NC(=O)c1ccc(COc2cnc(N3CCN(C(=O)OC(C)(C)C)CC3)nc2)cc1
assigned.label: condition met
//
compound: N#Cc1cnccc1COc1cnc(N2CCN(C(=O)OCC(F)(F)F)CC2)nc1
assigned.label: condition met
//
compound: CC(C)(C)OC(=O)N1CCN(c2ncc(OCc3ccc(S(C)(=O)=O)nc3)cn2)CC1
assigned.label: condition not met
//
compound: C[C@@H]1CN(C(=O)OC2COC2)CCN1c1ncc(OCc2ccc(S(C)(=O)=O)cc2)cn1
assigned.label: condition not met

Then there is this compound:
Check if activation at 30 µM >= 90% (inclusive). Item: CC(OC(=O)N1CCN(c2ncc(OCc3ccc(S(C)(=O)=O)cc3)cn2)CC1)C(F)(F)F (stereo not drawn)
condition not met

// data source = patent US20110065706A1
